assay: qHTS assay to identify small molecule agonists of the vitamin D receptor (VDR) signaling pathway - cell viability counter screen (AID 743224); also: % is scaled to controls: 0 for no effect and ±100 for the full control effect; nearly all actives have a fitted effect of over 50% in size
condition summary: VDR-bla HEK293T viability, CellTiter-Glo luminescence, 16 h; series mostly up to 62.6 µM
Records with an inconclusive call do not appear. Calls of active or inactive are those of the source. Calls follow the shape of the dose curve; as a rule, active = well fitted cell-killing curve with a large enough effect in the repeat runs; inconclusive = weak or mixed curves, or effect the other way; inactive = no such curve, though single readings can be large or run the other way. Where a SMILES comes first, the peptide text is derived from it.
outcome measure: activity change, negative = cytotoxicity

Cc1ccc(C(=O)O)cc1[N+](=O)[O-] : inactive
CCCC(=O)OC/C=C(\C)CCC=C(C)C : inactive
CC(=O)CC(=O)OC(C)(C)C : inactive
COC(=O)/C=C\C(=O)O : inactive
N[C@@H](CSCCCO)C(=O)O : inactive
Cn1c(=O)c2c(ncn2CCO)n(C)c1=O : inactive
COC(=O)CCCCC(CCSS/C(CCO)=C(\C)N(C=O)Cc1cnc(C)nc1N)SC(C)=O (configuration not stated) : inactive
CC(C)c1ccc(C=O)cc1 : inactive
CC(=O)c1cc(C)oc1C : inactive
O=C(CCCCC(=O)Nc1c(I)cc(I)c(C(=O)O)c1I)Nc1c(I)cc(I)c(C(=O)O)c1I : inactive
CCO[Si](CC)(OCC)OCC : inactive
CSc1cnccn1 : inactive
OCC1(CO)COCOC1 : inactive
O=C1CCCCO1 : inactive
CCCCCCC1(C)CCC(=O)O1 (configuration not stated) : inactive
O/N=C/C=N/O : inactive
CC1c2ccccc2CN1NC(=O)c1ccc(Cl)c(S(N)(=O)=O)c1 (configuration not stated) : inactive
CC1=C(C(=O)O)N2C(=O)[C@@H](NC(=O)[C@H](N)c3ccccc3)[C@H]2SC1 : inactive
CCCCOC(=O)C(C)O (configuration not stated) : inactive
NCCOCCN : inactive
CO/N=C(/C(=O)N[C@@H]1C(=O)N2C(C(=O)[O-])=C(C[n+]3ccn4ncccc43)CS[C@H]12)c1nsc(N)n1 : inactive
O=C1c2ccccc2C(=O)c2cc(Cl)ccc21 : -4.49% [at 5.95 µM] (inactive)
COc1c2occc2c(OC)c2c(=O)cc(C)oc12 : inactive
CC(=O)Nc1ccc(OC(=O)c2ccccc2OC(C)=O)cc1 : inactive
[O-][n+]1cccc(/C(Cl)=N/OC[C@@H](O)CN2CCCCC2)c1 : inactive
CCc1occc(=O)c1O : inactive
CCCCCCCCCCCCCCC(=O)NC(CO)CCCCCCCCCCCCCC (configuration not stated) : inactive
CC(C)(CO)C(O)C(=O)NCCCO (configuration not stated) : inactive
CC(C)Cn1cnc2c1c(=O)n(C)c(=O)n2C : inactive
CCCC(CC)c1ccccc1 (configuration not stated) : inactive
CC(C)NCC(O)c1ccc2ccccc2c1 (configuration not stated) : inactive
CC1(C)CC(OC(=O)CCCCCCCCC(=O)OC2CC(C)(C)NC(C)(C)C2)CC(C)(C)N1 : inactive
OC1OCCOC1O (configuration not stated) : inactive
C[C@H]1[C@@H](c2ccccc2)NC(=O)N1C : inactive
C=C(C)[C@@H]1CC=C(C)C(=O)C1 : inactive
CCCc1ccc(O)cc1 : inactive
COC(=O)c1cc(Cl)cc(Cl)c1 : inactive
C/C(=C1\CCOC(=O)S1)N(C=O)Cc1cnc(C)nc1N : inactive
CC/C=C\CCOC(=O)c1ccccc1O : inactive
Cn1c(=O)c2[nH]c(Br)nc2n(C)c1=O : inactive
CCCCCC(C)O (configuration not stated) : inactive
N#Cc1ccccc1O : inactive
CC(=O)OCC(=O)Nc1cc(C#N)cc(NC(=O)COC(C)=O)c1Cl : inactive
c1ccc2cnccc2c1 : inactive
CC(=O)O[C@H]1C[C@@H]2CC[C@@]1(C)C2(C)C : inactive
C=CCCCCCCCCC(=O)OCCCC : inactive
CC(=O)N[C@@H](CO)C(=O)N[C@@H](CC(=O)O)C(=O)N[C@@H](CCCCN)C(=O)N1CCC[C@H]1C(=O)O (Ac-SDKP-OH) : inactive
C=Cc1ccc(C(C)(C)C)cc1 : inactive
COS(=O)(=O)O : inactive
CN(C)CCN(C)CCO : inactive
CCN1CCCC1CN (configuration not stated) : inactive
OCC1CCC(CO)CC1 (configuration not stated) : inactive
COc1cc(/C=C/C(N)=O)cc(OC)c1OC : inactive
CN(C)C(C)(C)CO : inactive
C[Si]1(C)O[Si](C)(C)O[Si](C)(C)O[Si](C)(C)O[Si](C)(C)O1 : inactive
O=C(CCCl)NCCc1ccccc1 : inactive
Cc1ccc(C)c([N+](=O)[O-])c1 : inactive
